MEASUREMENT_TARGET: T1, human CD73 (full length, on transfected CHOK1 cells) (human, UniProt P21589 27-549)
T1 sequence (looked up): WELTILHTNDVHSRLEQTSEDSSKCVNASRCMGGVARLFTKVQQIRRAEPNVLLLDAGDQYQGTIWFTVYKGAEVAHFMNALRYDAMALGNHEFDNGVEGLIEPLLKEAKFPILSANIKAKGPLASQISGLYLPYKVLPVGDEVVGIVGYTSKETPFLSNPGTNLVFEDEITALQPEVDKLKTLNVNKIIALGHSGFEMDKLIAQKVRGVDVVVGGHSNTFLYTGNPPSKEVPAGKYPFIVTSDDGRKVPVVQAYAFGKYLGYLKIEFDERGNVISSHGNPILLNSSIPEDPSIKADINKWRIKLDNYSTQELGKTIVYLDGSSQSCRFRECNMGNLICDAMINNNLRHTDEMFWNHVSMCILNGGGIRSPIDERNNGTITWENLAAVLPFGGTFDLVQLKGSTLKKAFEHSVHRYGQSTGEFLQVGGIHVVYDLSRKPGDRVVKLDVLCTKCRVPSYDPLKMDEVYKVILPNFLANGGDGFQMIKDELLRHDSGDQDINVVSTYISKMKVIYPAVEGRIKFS
PROTOCOL_NOTES: cell-based or functional assay
MEASUREMENT_KIND: Enzyme activity blocking assay, IC50

As a guide, the following entries are already answered.
{"BINDER": "mAb020 (clone 24D6B4), murine anti-CD73 antibody (antibody, V domains shown, Purified from hybridoma supernatant) VH: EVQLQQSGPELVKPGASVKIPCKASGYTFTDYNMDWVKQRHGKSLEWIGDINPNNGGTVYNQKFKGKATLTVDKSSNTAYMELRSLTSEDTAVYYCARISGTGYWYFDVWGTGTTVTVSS VL: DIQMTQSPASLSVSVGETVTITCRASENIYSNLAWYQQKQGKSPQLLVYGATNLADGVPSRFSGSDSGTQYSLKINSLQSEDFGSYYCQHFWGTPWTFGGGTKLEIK", "RESULT": "0.1 nM"}
{"BINDER": "mAb034 (clone 60G1C8), murine anti-CD73 antibody (antibody, V domains shown, Purified from hybridoma supernatant) VH: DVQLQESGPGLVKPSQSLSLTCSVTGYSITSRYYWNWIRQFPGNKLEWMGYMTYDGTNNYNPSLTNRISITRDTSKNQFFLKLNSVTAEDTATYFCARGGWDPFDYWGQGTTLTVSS VL: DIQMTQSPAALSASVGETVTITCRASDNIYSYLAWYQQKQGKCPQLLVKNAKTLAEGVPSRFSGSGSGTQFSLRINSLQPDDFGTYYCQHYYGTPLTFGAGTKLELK", "RESULT": "0.1 nM"}
{"BINDER": "mAb036 (clone 66H6C12), murine anti-CD73 antibody (antibody, V domains shown, Purified from hybridoma supernatant) VH: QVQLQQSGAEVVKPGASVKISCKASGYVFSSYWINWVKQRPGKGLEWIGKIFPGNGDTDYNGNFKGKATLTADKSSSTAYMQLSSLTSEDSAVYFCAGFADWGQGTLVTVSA VL: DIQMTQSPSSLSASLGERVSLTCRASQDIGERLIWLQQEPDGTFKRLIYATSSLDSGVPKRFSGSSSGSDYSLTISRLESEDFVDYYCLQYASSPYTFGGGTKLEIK", "RESULT": "0.2 nM"}
{"BINDER": "mAb065 (clone 125A4E10), murine anti-CD73 antibody (antibody, V domains shown, Purified from hybridoma supernatant) VH: EVQLQQSGPELVKPGASVKISCKASGYTFTDYYMNWVKQSHGKSLEWIGNINPNNGDTNYNQKFKGKATLTVDKSSSTASMELRSLTSEDSAVYYCANSGYYYFDYWGQGTTLTVSS VL: DIVMTQSPSSLTVTAGEKVTMSCKSSQSLLNSGNQKNYLTWYQQKPGQPPKVLIYWASTRESGVPDRFTGSGSGTDFTLTISSVQAEDLAVYYCQNDYSYPPTFGGGTNLEIK", "RESULT": "0.3 nM"}
{"BINDER": "mAb041 (clone 71E10B3), murine anti-CD73 antibody (antibody, V domains shown, Purified from hybridoma supernatant) VH: QVQLQQPGTELVKPGASVKLSCKASGYTFTSYWMHWVKQRPGQGLEWIGNINPSNGGTNYNQKFKSKATLTVDKSSNTASMQLSSLTSEDSAVYYCARGDYGYDWYLDVWGTGTTVTVSS VL: DIVLTQSPASLAVSLGQRAIISCKASQSVSFAGPSLMHWYQQKPGQQPKLLIYRTSNLEAGVPTRFSGSGSGTDFTLNIHPVEEDDAATYYCQQNREFPWTFGGGTKLEIK", "RESULT": "4 nM"}
{"BINDER": "mAb038 (clone 69C9E12), murine anti-CD73 antibody (antibody, V domains shown, Purified from hybridoma supernatant) VH: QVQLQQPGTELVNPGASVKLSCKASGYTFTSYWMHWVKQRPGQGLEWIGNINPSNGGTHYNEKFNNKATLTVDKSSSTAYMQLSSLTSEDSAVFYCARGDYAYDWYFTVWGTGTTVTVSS VL: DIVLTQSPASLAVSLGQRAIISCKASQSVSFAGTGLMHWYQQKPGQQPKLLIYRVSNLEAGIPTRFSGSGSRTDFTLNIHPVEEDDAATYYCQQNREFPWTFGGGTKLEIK", "RESULT": "1 nM"}

Consider the following items and state reported Enzyme activity blocking assay, IC50 for each.
1. mAb044 (clone 80H7D6), murine anti-CD73 antibody (antibody, V domains shown, Purified from hybridoma supernatant) VH: EVKLVESGGGLVQPGGSLRLSCAASGFTFTDYYMSWVRQPPGKALEWLGFIRNKADGSTTEYSASVKGRFTISRDNSQSILYLQMNALRPEDSATYYCTRSPIYFDNWYFDVWGTGTTVTVSS VL: DIVMSQSPSSLAVSVGEKVTMTCKSSQSLLYSNNQKNYLAWYQQKPGQSPKLLIYWASTRESGVPDRFTGSGSGTDFTLTLSSVKAEDLAVYYCQQYYSYPFTFGSGTKLEIK
2. mAb042 (clone 77B9A3), murine anti-CD73 antibody (antibody, V domains shown, Purified from hybridoma supernatant) VH: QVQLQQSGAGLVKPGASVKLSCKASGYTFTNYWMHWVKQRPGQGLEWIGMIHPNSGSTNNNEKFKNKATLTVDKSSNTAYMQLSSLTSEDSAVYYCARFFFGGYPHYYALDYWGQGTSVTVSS VL: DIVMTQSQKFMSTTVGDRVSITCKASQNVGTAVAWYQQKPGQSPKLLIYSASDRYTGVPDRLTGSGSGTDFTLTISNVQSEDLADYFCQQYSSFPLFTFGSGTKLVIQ

Reply text:
1. 0.5 nM
2. 0.1 nM

Dear reader, for each entry below, please note its Enzyme activity blocking assay, IC50.
1. mAb030 (clone 42A5A7), murine anti-CD73 antibody (antibody, V domains shown, Purified from hybridoma supernatant; also called antibody 030) VH: DIQLQESGPGLVKPSQSLSLTCSVTGYSITSRYYWNWIRQFPGNKLEWMGYITYDDNNNYNPSLKNRISITRDTSKNQFFLKLNSVTPEDTATYYCARGGWDPFLYWGQGTLVTVSA VL: DIQMTQSPASLSASVGETVTITCRASDNIYSYLAWYQQKQGKSLQLLVDSAKNLGEGVPSRFSGSGSGTQFYLKINSLQPEDFGVYYCQHYYGTPFTFGGGTKLELK
2. mAb032 (clone 56F12H8), murine anti-CD73 antibody (antibody, V domains shown, Purified from hybridoma supernatant) VH: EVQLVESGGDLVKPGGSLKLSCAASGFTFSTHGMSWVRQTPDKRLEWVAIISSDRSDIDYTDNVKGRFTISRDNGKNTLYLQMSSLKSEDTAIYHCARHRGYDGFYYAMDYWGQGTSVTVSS VL: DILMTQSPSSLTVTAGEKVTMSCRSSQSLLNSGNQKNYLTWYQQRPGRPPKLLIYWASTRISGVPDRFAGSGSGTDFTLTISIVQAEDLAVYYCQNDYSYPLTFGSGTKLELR

Reply text:
1: 0.1 nM; 2: 1.2 nM
